Values were extracted from ChEMBL document CHEMBL1140167.

experiment-description: Inhibition of Staphylococcus aureus sortase A
readout-label: IC50

| compound | IC50 |
| --- | --- |
| C=CC(C)(CC/C=C(\C)C[C@@H]1C=C(C)C(=O)[C@H]1C=C(C)C)Oc1ccc(O)cc1CC(=O)OC (stereo partly specified) | > 200 µg/mL |
| COC(=O)CC1(C/C=C(\C)CC/C=C(\C)CC/C=C(\C)[C@@H](O)[C@@H](O)C=C(C)C)CC(=O)C=CC1=O (stereo partly specified) | 23 µg/mL |
| C=CC(C)(CC/C=C(\C)CCCC(C)C(=O)[C@H](O)C=C(C)C)Oc1ccc(O)cc1CC(=O)OC (stereo partly specified) | > 200 µg/mL |
| C=CC(C)(CC/C=C(\C)CCCC(C)C(O)/C=C/C(=C)C)Oc1ccc(O)cc1CC(=O)OC (stereo unspecified) | > 200 µg/mL |
| C=CC(C)(CC/C=C(\C)CC/C=C(\C)C(=O)[C@@H](O)C=C(C)C)Oc1ccc(O)cc1CC(=O)OC (stereo partly specified) | > 200 µg/mL |
| COC(=O)Cc1cc(O)cc(C/C=C(\C)CC/C=C(\C)CC/C=C(\C)C(=O)[C@@H](O)C=C(C)C)c1O | 23 µg/mL |

[in] Using the record for C=CC(C)(CC/C=C(\C)CCCC(C)C(O)C(=O)C=C(C)C)Oc1ccc(O)cc1CC(=O)OC (stereo unspecified) , report its IC50.
[out] > 200 µg/mL

[in] Can you share its IC50? I mean this compound: COC(=O)Cc1cc(O)cc(C/C=C(\C)CC/C=C(\C)CC/C=C(\C)[C@@H](O)[C@@H](O)C=C(C)C)c1O [ISONAHOCOL D2]
[out] 23 µg/mL

[in] Which IC50 reading was recorded for the compound COC(=O)Cc1cc(O)cc(C/C=C(\C)CC/C=C(\C)CCCC(C)C(=O)[C@@H](O)C=C(C)C)c1O (stereo partly specified) ?
[out] 23 µg/mL
